biological target: human plasma kallikrein (hPK) (Homo sapiens, UniProt P03952); test: Enzyme inhibition assay, human plasma kallikrein
Numbered stars: 1 amine (or outer) side, 2 acyl side, 3 side chain; on linkers, the order of the positions; unused ones are H or OH. Bridge positions count the residues as written; N and C are the ends. Square brackets hold non-standard residues; d marks the D form. Peptide text beside a SMILES is read from it. TBMB = c1c(C[*:1])cc(C[*:3])cc1C[*:2]; NMeS = CN[C@@H](CO)C(=O)O; NMeA = CN[C@@H](C)C(=O)O
readout: Ki (nM)
Give the number; nM is assumed, so skip it.

CC(=O)N[C@H]1CSCc2cc3cc(c2)CSC[C@H](NC(=O)C[C@H](CCCNC(=N)N)NC(=O)[C@H](C)NC(=O)[C@@H]2CCCN2C(=O)[C@H](Cc2c[nH]c4ccccc24)NC(=O)[C@H](CO)NC1=O)C(=O)N[C@@H](CC(C)C)C(=O)N[C@@H](Cc1c[nH]cn1)C(=O)N[C@@H](CCC(N)=O)C(=O)N[C@@H](CC(=O)O)C(=O)N[C@@H](CC(C)C)C(=O)N[C@H](C(N)=O)CSC3	8.2
CC(C)[C@@H]1NC(=O)[C@H](CCCNC(=N)N)NC(=O)[C@@H]2CSCc3cc(cc(c3)CSC[C@@H](C(=O)N[C@@H](C)C(N)=O)NC(=O)[C@H](C)NC1=O)CSC[C@H](NC(=O)[C@H](C)N)C(=O)N[C@@H](Cc1ccccc1)C(=O)N[C@@H](CCCCN)C(=O)N[C@@H](Cc1c[nH]cn1)C(=O)N2 [Peptide 3B8] (H-ACFKHCRVACA-NH2; linker 2-6-10 via TBMB)	0.95

Form field: Ki recorded for CC(C)[C@@H]1NC(=O)[C@H](CCCNC(=N)N)NC(=O)[C@@H]2CSCc3cc(cc(c3)CSC[C@@H](C(=O)N[C@@H](C)C(N)=O)NC(=O)[C@H](CC(N)=O)NC1=O)CSC[C@H](NC(=O)[C@H](C)N)C(=O)N[C@@H](Cc1ccccc1)C(=O)N[C@@H](CCCCN)C(=O)N[C@@H](CC(N)=O)C(=O)N2 [Peptide 3B2] (H-ACFKNCRVNCA-NH2; linker 2-6-10 via TBMB) with human plasma kallikrein (hPK) (Homo sapiens, UniProt P03952) (enter value)
9

// fetch human plasma kallikrein (hPK) (Homo sapiens, UniProt P03952) Ki for CC(=O)N[C@H]1CSCc2cc3cc(c2)CSC[C@H](NC(=O)[C@H](CCCNC(=N)N)NC(=O)[C@H](C)N(C)C(=O)[C@@H]2CCCN2C(=O)[C@H](Cc2c[nH]c4ccccc24)NC(=O)[C@H](CO)N(C)C1=O)C(=O)N[C@@H](CC(C)C)C(=O)N[C@@H](Cc1c[nH]cn1)C(=O)N[C@@H](CCC(N)=O)C(=O)N[C@@H](CC(=O)O)C(=O)N[C@@H](CC(C)C)C(=O)N[C@H](C(N)=O)CSC3 [Ac-(06-34-18) NMeSer1, NMeAla4] (Ac-C[NMeS]WP[NMeA]RCLHQDLC-NH2; linker 1-7-13 via TBMB)
444

Query the reported Ki for human plasma kallikrein (hPK) (Homo sapiens, UniProt P03952); item: CSCC[C@@H]1NC(=O)[C@H](CCC(=O)O)NC(=O)[C@H](CCC(N)=O)NC(=O)[C@H](Cc2c[nH]cn2)NC(=O)[C@H]([C@@H](C)O)NC(=O)[C@@H]2CSCc3cc(cc(c3)CSC[C@@H](C(=O)N[C@@H](C)C(N)=O)NC1=O)CSC[C@H](NC(=O)[C@H](C)N)C(=O)NCC(=O)N[C@@H](C(C)C)C(=O)N1CCC[C@H]1C(=O)N[C@@H](Cc1ccc(O)cc1)C(=O)N[C@@H](CCCNC(=N)N)C(=O)N2 [06-64 T] (H-ACGVPYRCTHQEMCA-NH2; linker 2-8-14 via TBMB)
6.9

The measured values listed here are drawn from patent US9994617B2.
